Listed here: items and their measured koff.
# measured_on: T1, human CD3ed (human, UniProt P07766 23-126; P04234 22-105, limits assumed)
# T1 construct: The construct injected as 'human CD3ed' in the Biacore assay is not defined; also called human CD3 epsilon/delta heterodimer
# test_method_notes: SPR Biacore T200, IgG captured on protein A, antigen as analyte, 25 C;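 note: antigens flowed over a CM3 chip for 120 s association, KD derived from ka and kd, running buffer (ACES, NaCl, Tween20, pH 7.4) served as blank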
Express it in s⁻¹; write the number only.

Worked set:
dBBDu_186 / dBBDu_L106 (antibody, human IgG1, V domains shown, Tested as IgG (human IgG1 constant region, kappa light chain); also called dBBDu186/L106) VH: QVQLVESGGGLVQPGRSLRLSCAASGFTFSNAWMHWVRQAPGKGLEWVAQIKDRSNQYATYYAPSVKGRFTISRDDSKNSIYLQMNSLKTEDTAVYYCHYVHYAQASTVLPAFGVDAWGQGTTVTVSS VL: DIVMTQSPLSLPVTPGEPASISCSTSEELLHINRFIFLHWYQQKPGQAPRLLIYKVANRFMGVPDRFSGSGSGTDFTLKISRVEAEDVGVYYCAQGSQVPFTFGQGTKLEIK: 0.0318
dBBDu_186 / dBBDu_L100 (antibody, human IgG1, V domains shown, Tested as IgG (human IgG1 constant region, kappa light chain); also called dBBDu186/L100) VH: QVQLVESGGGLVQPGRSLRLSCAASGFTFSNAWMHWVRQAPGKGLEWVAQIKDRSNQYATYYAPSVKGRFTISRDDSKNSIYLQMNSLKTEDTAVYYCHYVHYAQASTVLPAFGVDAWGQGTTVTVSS VL: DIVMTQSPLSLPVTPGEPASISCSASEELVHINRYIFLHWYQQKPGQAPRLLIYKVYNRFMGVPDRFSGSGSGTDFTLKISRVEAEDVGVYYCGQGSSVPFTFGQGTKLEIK: 0.0546
dBBDu_193 / dBBDu.L127 (antibody, human IgG1, V domains shown, Tested as IgG (human IgG1 constant region, kappa light chain); also called dBBDu193/L127; dBBDu_193/L127) VH: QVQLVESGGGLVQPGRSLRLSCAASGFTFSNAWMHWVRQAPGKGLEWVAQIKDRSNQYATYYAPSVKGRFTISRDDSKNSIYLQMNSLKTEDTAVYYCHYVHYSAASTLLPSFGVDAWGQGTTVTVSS VL: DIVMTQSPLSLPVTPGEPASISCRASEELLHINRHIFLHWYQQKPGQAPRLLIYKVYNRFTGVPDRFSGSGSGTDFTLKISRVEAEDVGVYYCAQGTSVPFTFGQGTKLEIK: 0.0191
dBBDu_186 / dBBDu_L098 (antibody, human IgG1, V domains shown, Tested as IgG (human IgG1 constant region, kappa light chain); also called dBBDu186/L098) VH: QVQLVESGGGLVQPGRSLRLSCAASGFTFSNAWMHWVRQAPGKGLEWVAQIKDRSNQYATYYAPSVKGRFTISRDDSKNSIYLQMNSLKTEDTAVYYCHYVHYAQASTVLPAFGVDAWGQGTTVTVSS VL: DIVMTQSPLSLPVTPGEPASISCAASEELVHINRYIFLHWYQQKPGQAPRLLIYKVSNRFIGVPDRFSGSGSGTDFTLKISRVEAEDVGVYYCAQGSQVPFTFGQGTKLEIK: 0.0209

As a next step, examine the binder that follows.
Ask | Report koff for dBBDu_186 / dBBDu_L096 (antibody, human IgG1, V domains shown, Tested as IgG (human IgG1 constant region, kappa light chain); also called dBBDu186/L096) VH: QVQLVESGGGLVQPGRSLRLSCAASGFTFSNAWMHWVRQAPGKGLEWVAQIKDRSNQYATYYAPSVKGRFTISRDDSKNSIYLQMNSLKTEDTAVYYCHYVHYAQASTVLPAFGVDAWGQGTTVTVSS VL: DIVMTQSPLSLPVTPGEPASISCRTSQELVHINRYIFLHWYQQKPGQAPRLLIYKVYNRFQGVPDRFSGSGSGTDFTLKISRVEAEDVGVYYCAQGTSVPYTFGQGTKLEIK please.
Reply | 0.102
